Experiment: qHTS assay to identify small molecule agonists of H2AX - cell viability counter screen (AID 1224847); note: nearly all actives have a fitted effect of over 30% in size
Settings: CHO-K1 viability, CellTiter-Glo luminescence, 3 h; series mostly up to 154 µM
Inconclusive results are not listed. Active and inactive are the calls of the source. Calls come from the whole dose curve.
// allowed return values: yes (1) for active, no (0) for inactive

Prompt: Lab log entry: O=C1OC(=O)c2ccc3c4c(ccc1c24)C(=O)OC3=O — outcome as called in the assay?
Response: no (0)

Prompt: Lab log entry: CCCCCCCOC(=O)c1ccc(O)cc1 — outcome as called in the assay?
Response: yes (1)

Prompt: Lab log entry: COc1cccc(OC)c1O — outcome as called in the assay?
Response: no (0)

Prompt: Lab log entry: C[C@]12CC[C@H]3C(=CCc4cc(O)ccc43)[C@@H]1CCC2=O — outcome as called in the assay?
Response: yes (1)

Prompt: Lab log entry: O=C1c2c(O)ccc([N+](=O)[O-])c2C(=O)c2c([N+](=O)[O-])ccc(O)c21 — outcome as called in the assay?
Response: yes (1)

Prompt: Lab log entry: O=C1C=CC(=O)N1c1ccccc1 — outcome as called in the assay?
Response: yes (1)

Prompt: Lab log entry: O=C(Nc1ccc(Cl)cc1)Nc1ccc(Cl)c(C(F)(F)F)c1 — outcome as called in the assay?
Response: yes (1)

Prompt: Lab log entry: CCOC(OCC)C(=O)c1ccccc1 — outcome as called in the assay?
Response: no (0)

Prompt: Lab log entry: O=C(Nc1ccc(Cl)c(Cl)c1)c1cc(Cl)cc(Cl)c1O — outcome as called in the assay?
Response: yes (1)

Prompt: Lab log entry: COc1ccc(C#N)cc1 — outcome as called in the assay?
Response: no (0)

Prompt: Lab log entry: CS(C)(=O)=O — outcome as called in the assay?
Response: no (0)

Prompt: Lab log entry: CCN(CC)CCNc1ccc(CO)c2sc3ccccc3c(=O)c12 — outcome as called in the assay?
Response: no (0)

Prompt: Lab log entry: Nc1ncnc2c1ncn2[C@@H]1O[C@H](COP(=O)(O)O)[C@@H](O)[C@H]1O — outcome as called in the assay?
Response: no (0)

Prompt: Lab log entry: CO[Si](CCCNCCNCCN)(OC)OC — outcome as called in the assay?
Response: no (0)

Prompt: Lab log entry: CC(=O)Oc1ccc(C2(c3ccc(OC(C)=O)cc3)Oc3ccccc3NC2=O)cc1 — outcome as called in the assay?
Response: no (0)

Prompt: Lab log entry: CN(C)c1ccc(N=NS(=O)(=O)O)cc1 — outcome as called in the assay?
Response: yes (1)

Prompt: Lab log entry: Clc1nc2ccccc2s1 — outcome as called in the assay?
Response: no (0)

Prompt: Lab log entry: C(=C/c1ccccc1)/c1ccccc1 — outcome as called in the assay?
Response: no (0)

Prompt: Lab log entry: CCCCN(C)C — outcome as called in the assay?
Response: no (0)

Prompt: Lab log entry: CN1CN(C)CN(C)C1 — outcome as called in the assay?
Response: no (0)

Prompt: Lab log entry: CCCCOc1ccc(C(=O)CCN2CCCCC2)cc1 — outcome as called in the assay?
Response: no (0)

Prompt: Lab log entry: C=C[C@](C)(O)CC[C@@H]1[C@@]2(C)CCCC(C)(C)[C@@H]2CC[C@@]1(C)O — outcome as called in the assay?
Response: yes (1)

Prompt: Lab log entry: CSc1c(Cl)c(Cl)c(Cl)c(Cl)c1Cl — outcome as called in the assay?
Response: no (0)

Prompt: Lab log entry: CC(=O)C=O — outcome as called in the assay?
Response: no (0)

Prompt: Lab log entry: CC1CCCNC1 (stereo not drawn) — outcome as called in the assay?
Response: no (0)

Prompt: Lab log entry: Cc1ccc(O)cn1 — outcome as called in the assay?
Response: no (0)

Prompt: Lab log entry: S=P(N1CC1)(N1CC1)N1CC1 — outcome as called in the assay?
Response: no (0)

Prompt: Lab log entry: C=C1C(C)(C)[C@@]2(Cl)C(Cl)[C@]1(Cl)C(Cl)(Cl)C2(Cl)Cl (stereo partly drawn) — outcome as called in the assay?
Response: yes (1)
